Cited source for all entries: ChEMBL document CHEMBL4513216

- assay: Toxicity liver stage against HepG2, at 10uM
- Assay type: cell-based
- Set-up: test concentration 10 uM, cell line HepG2-A16-CD81EGFP
- test.settings: human, HepG2-A16-CD81EGFP cells; read-out: INHIBITION
Examples of compounds with documented cytotoxicity at 10 µM follow.
I only need the number, in %, no unit after it.

Examples with answers:
Tell me the measured cytotoxicity at 10 µM of O=c1c(-c2ccnc(N3CCC[C@H]3CO)n2)cnc2sccn12 , please. -6.3

Tell me the measured cytotoxicity at 10 µM of CCn1cc2c(n1)C(COC)CN(C(=O)CCOc1ccccc1)C2 (configuration not stated) , please. 0.234

Tell me the measured cytotoxicity at 10 µM of CCCc1nnc(N2CCN(c3ccccc3Cl)CC2)o1 , please. 0.426

Tell me the measured cytotoxicity at 10 µM of Cc1ncoc1C(=O)N1CCCC(c2ccc3c(N)nn(C)c3n2)C1 (configuration not stated) , please. 2.76

Tell me the measured cytotoxicity at 10 µM of O=C(Cc1ccccc1Cl)Nc1cnn(C2CCOC2)c1 (configuration not stated) , please. 2.63

Tell me the measured cytotoxicity at 10 µM of CN1[C@@H](C(=O)NCC2CC2)C[C@H]2CN(Cc3cccc(C#N)c3)C[C@H]21 , please. -8.22

Further cases:
Tell me the measured cytotoxicity at 10 µM of CCc1ccc(C(=O)NCc2ccnc(C)n2)cc1 , please. -4.91

Tell me the measured cytotoxicity at 10 µM of O=C(c1ccc(CN2CCCCC2)cc1)N1CCCC1c1cccs1 (configuration not stated) , please. -7.15

Tell me the measured cytotoxicity at 10 µM of Cc1ccc2c(n1)N(CCN(C)C)CCN(C(=O)c1ccoc1)C2 , please. -74.4

Tell me the measured cytotoxicity at 10 µM of N#CCCCN1CCCC1Cc1ccccc1 (configuration not stated) , please. -45.4

Tell me the measured cytotoxicity at 10 µM of Cc1cc(NC(=O)CNC2CCCN(c3cccnn3)C2)on1 (configuration not stated) , please. 5.98

Tell me the measured cytotoxicity at 10 µM of CC(C)N1CC2(CCCN(c3ncc(Cl)cc3F)C2)CCC1=O (configuration not stated) , please. 12.2

----------
- assay: Toxicity liver stage against HepG2, at 10uM
- Format: cell-based
- Parameters: test concentration 10 uM, cell line HepG2-A16-CD81EGFP
- test.settings: human, HepG2-A16-CD81EGFP cells; read-out: INHIBITION
Examples of compounds with documented cytotoxicity at 10 µM follow.
I only need the number, in %, no unit after it.

Examples with answers:
Tell me the measured cytotoxicity at 10 µM of Cc1ccnc(OC[C@]23COC[C@H]2CN(C(=O)c2ncccn2)C3)n1 , please. -3.18

Tell me the measured cytotoxicity at 10 µM of O=C(O)c1nc(SCc2ccc(F)cc2)ncc1Br , please. -3.11

Tell me the measured cytotoxicity at 10 µM of O=C(O)c1cc(-c2ccncc2)cc(S(=O)(=O)N2CCCCCC2)c1 , please. 2.05

Next compound, please.
Tell me the measured cytotoxicity at 10 µM of Cc1nnc(N2CCCC3(CN(Cc4cnn(C)c4)CCO3)C2)o1 (stereo not drawn) , please. 4.12

----------
Examples of molecules with documented cytotoxicity at 10 µM follow.
- assay: Toxicity liver stage against HepG2, at 10uM
- Assay type: cell-based
- Set-up: test concentration 10 uM, cell line HepG2-A16-CD81EGFP
- test.settings: human, HepG2-A16-CD81EGFP cells; read-out: INHIBITION

Examples with answers:
Tell me the measured cytotoxicity at 10 µM of CS(=O)(=O)N1C[C@@H](C(=O)Nc2cnccn2)C[C@H]2OCC[C@H]21 , please. 17.3%

Tell me the measured cytotoxicity at 10 µM of CCNc1nc2cn(-c3cccc(OC)c3)c(=O)c-2c[nH]1 , please. 8.65%

Tell me the measured cytotoxicity at 10 µM of CC(C)c1ocnc1C(=O)NC1(c2cccc(F)c2)CCOCC1 , please. 6.81%

Tell me the measured cytotoxicity at 10 µM of Cc1cc(C#N)ccc1S(=O)(=O)NCc1cnc(N(C)C)n1C , please. -2.64%

Tell me the measured cytotoxicity at 10 µM of c1ccc(CC2CCN(Cc3ccnc(-c4cccnc4)n3)CC2)cc1 , please. 6.36%

Tell me the measured cytotoxicity at 10 µM of CC(C)Cc1cc(C(=O)NCC2CCCN(c3ccccn3)C2)on1 (stereo unspecified) , please. 0.101%

Further cases:
Tell me the measured cytotoxicity at 10 µM of CC(C)Oc1ccc(CSc2nnc(CN3CCCC3=O)o2)cc1 , please. -1.71%

----------
- assay: Toxicity liver stage against HepG2, at 10uM
- Type: cell-based
- Design: test concentration 10 uM, cell line HepG2-A16-CD81EGFP
- test.settings: human, HepG2-A16-CD81EGFP cells; read-out: INHIBITION
Examples of molecules with documented cytotoxicity at 10 µM follow.
I only need the number, in %, no unit after it.

Examples with answers:
Tell me the measured cytotoxicity at 10 µM of CCN(Cc1ccc2c(c1)OCCO2)S(=O)(=O)N(C)C(C)C , please. -9.21

Tell me the measured cytotoxicity at 10 µM of CCc1cc(NCCN2CCNC2=O)n2nc(C)c(C)c2n1 , please. -5.81

Tell me the measured cytotoxicity at 10 µM of COCc1cccc(NC(C)C(=O)N(C)Cc2ccccc2)c1 (stereo unspecified) , please. -0.42

Tell me the measured cytotoxicity at 10 µM of N[C@H]1CCCN(S(=O)(=O)c2ccc(C(=O)NCC(F)F)cc2)C1 , please. -0.566

Tell me the measured cytotoxicity at 10 µM of O=C(O)c1cc(-c2cc[nH]n2)cc(S(=O)(=O)N2CCCCCC2)c1 , please. -4.88

Tell me the measured cytotoxicity at 10 µM of COCC(=O)N1CCC(c2c(C(=O)N(C)C)sc3ncccc23)C1 (stereo unspecified) , please. 1.55

Tell me the measured cytotoxicity at 10 µM of O=C(Nc1cnn(CCN2CCOCC2)c1)c1ccccn1 , please. -14.5

Tell me the measured cytotoxicity at 10 µM of CCc1cc(N2CCC(Nc3ccc4nnc(C)n4n3)CC2)ncn1 , please. 4.69

Further cases:
Tell me the measured cytotoxicity at 10 µM of O=C(c1n[nH]c2c1CCC2)N1CCCC1c1nc(-c2ccccn2)no1 (stereo unspecified) , please. -1.82

Tell me the measured cytotoxicity at 10 µM of Cc1nc(C2CCCN2CC(=O)N2CCCc3ccccc32)no1 (stereo unspecified) , please. -8.7

Tell me the measured cytotoxicity at 10 µM of O=C(NCCc1ccccc1)C1CCC(Cn2cnnn2)CC1 (stereo unspecified) , please. 2.01

----------
Examples of compounds with documented cytotoxicity at 10 µM follow.
- assay: Toxicity liver stage against HepG2, at 10uM
- Type: cell-based
- Parameters: test concentration 10 uM, cell line HepG2-A16-CD81EGFP
- test.settings: human, HepG2-A16-CD81EGFP cells; read-out: INHIBITION
I only need the number, in %, no unit after it.

Examples with answers:
Tell me the measured cytotoxicity at 10 µM of CC(C)=CCN1CCN(C(=O)c2snnc2C)[C@H]2CS(=O)(=O)C[C@H]21 , please. -0.987

Tell me the measured cytotoxicity at 10 µM of COCC(=O)N1C[C@H]2CNC[C@@]2(C(=O)NCc2cc(C)n[nH]2)C1 , please. 8.29

Tell me the measured cytotoxicity at 10 µM of CCN(CC)C(=O)C1CCN(c2ccc(Cl)cc2C#N)CC1 , please. 12.2

Tell me the measured cytotoxicity at 10 µM of COCCN1CC2(CCCN(c3ncnc4[nH]cnc34)C2)CCC1=O (stereo not drawn) , please. -3.68

Tell me the measured cytotoxicity at 10 µM of CCN1CCCn2c(nc(CNC(=O)c3cnoc3C)cc2=O)C1 , please. 6.13

Further cases:
Tell me the measured cytotoxicity at 10 µM of Cn1cc(-c2ccnc(NCC3CCCCO3)n2)cn1 (stereo not drawn) , please. -131

----------
- assay: Toxicity liver stage against HepG2, at 10uM
- Assay type: cell-based
- Design: test concentration 10 uM, cell line HepG2-A16-CD81EGFP
- test.settings: human, HepG2-A16-CD81EGFP cells; read-out: INHIBITION
Examples of molecules with documented cytotoxicity at 10 µM follow.
I only need the number, in %, no unit after it.

Tell me the measured cytotoxicity at 10 µM of O=C(Cc1ccco1)N1C[C@H]2CCC[C@@]2(COCc2cccnc2)C1 , please. -115

Tell me the measured cytotoxicity at 10 µM of COc1ccc(CCn2ccnc2-c2cc3n(n2)CCCNC3)cc1 , please. 8.07

Tell me the measured cytotoxicity at 10 µM of CC(C)CC(=O)N1CCC2(CC1)OCCO2 , please. 4.37

Tell me the measured cytotoxicity at 10 µM of CC(C)(C)c1csc(CN2CCN(S(=O)(=O)c3cccnc3)CC2)n1 , please. 3.21

Tell me the measured cytotoxicity at 10 µM of O=c1cc(N2CCOCC2)cnn1CCc1ccc(F)cc1 , please. 8.01

Tell me the measured cytotoxicity at 10 µM of O=C(C1CC1)N1CCC2(CCN2Cc2ccc(F)cc2)C1 (centres undefined) , please. 1.55

Tell me the measured cytotoxicity at 10 µM of Cc1ccccc1C1(C(=O)NCCN2CCC(C)CC2)CCOCC1 , please. 3.57

Tell me the measured cytotoxicity at 10 µM of COCCN1C(=O)CO[C@H]2CN(Cc3c[nH]nc3-c3ccccc3)C[C@@H]21 , please. -4.04

Tell me the measured cytotoxicity at 10 µM of Cc1cc2n(n1)[C@@H](C(F)(F)F)C[C@@H](C1CCN(C(=O)C3CC3)CC1)N2 , please. -41

Tell me the measured cytotoxicity at 10 µM of CC(CNC(=O)c1nnn(-c2ccccc2)c1C(F)(F)F)N(C)C (centres undefined) , please. 2.19

Tell me the measured cytotoxicity at 10 µM of COc1ccc(COCC(O)CN2CCC(c3ccn[nH]3)CC2)cc1 (centres undefined) , please. -0.975

Tell me the measured cytotoxicity at 10 µM of c1cncc(CN(CCCn2ccnc2)CC2CCOC2)c1 (centres undefined) , please. 1.79

Tell me the measured cytotoxicity at 10 µM of Cc1ccc2c(c1)c(CNC(=O)C1CC(=O)N(C3CC3)C1)nn2C (centres undefined) , please. -0.502

Tell me the measured cytotoxicity at 10 µM of CS(=O)(=O)N1CCO[C@@H]2CN(Cc3ccncc3)C[C@@H]2C1 , please. 4.5

Tell me the measured cytotoxicity at 10 µM of CC(C)COC(C)C(=O)NCc1ccccc1 (centres undefined) , please. 4.79

Tell me the measured cytotoxicity at 10 µM of Cc1ccc2[nH]c(CN(C)Cc3ccccc3C(=O)O)nc2c1 , please. 7.01
